src = patent US7655665B2

Tested on: Nilaparvata lugens
ASSAY_METHOD_TEXT: Insecticidal activity against Nilaparvata lugens (planthopper) by spraying
Format: in vivo
SETUP_CONDITIONS: 500 ppm, spraying 2 ml per tumbler, killed counted after 24 hours
The entries below come with measured mortality (%) (500 ppm) Nilaparvata-lugens values attached.
EXPERIMENTAL_READOUT: mortality (%) (500 ppm) Nilaparvata-lugens

| COMPOUND | OBS_VALUE |
| --- | --- |
| CCN=C1CCC([N+](=O)[O-])=C2N(Cc3ccc(Cl)nc3)CCN12 | 100% |
| CC(C)CCSC1CCC([N+](=O)[O-])=C2N(Cc3cnc(Cl)s3)CCN21 (stereo not shown) | 34% |
| N=C1CCC([N+](=O)[O-])=C2N(Cc3cnc(Cl)s3)CCN12 | 23% |
| CC(C)(C)CSC1CCC([N+](=O)[O-])=C2N(Cc3cnc(Cl)s3)CCN21 (stereo not shown) | 86% |
| O=[N+]([O-])C1=C2N(Cc3ccc(Cl)nc3)CCCN2C(=NCCCl)CC1 | 78% |
| O=C(OC1CCC([N+](=O)[O-])=C2N(Cc3cnc(Cl)s3)CCN21)c1ccc(C(F)(F)F)cc1 (stereo not shown) | 100% |
| CCCCCSC1CCC([N+](=O)[O-])=C2N(Cc3cnc(Cl)s3)CCN21 (stereo not shown) | 87% |
| N=C1CCC([N+](=O)[O-])=C2N(Cc3cnc(Cl)s3)CCCN12 | 56% |
| CCCN=C1CCC([N+](=O)[O-])=C2N(Cc3cnc(Cl)s3)CCCN12 | 78% |
| CCCC(C)SC1CCC([N+](=O)[O-])=C2N(Cc3cnc(Cl)s3)CCN21 (stereo not shown) | 35% |
| CC(C)CCN=C1CCC([N+](=O)[O-])=C2N(Cc3ccc(Cl)nc3)CCCN12 | 26% |
| CCCN=C1CCC([N+](=O)[O-])=C2N(Cc3ccc(Cl)nc3)CCN12 | 100% |
| CCCCCN=C1CCC([N+](=O)[O-])=C2N(Cc3cnc(Cl)s3)CCN12 | 67% |
| CCCCN=C1CCC([N+](=O)[O-])=C2N(Cc3ccc(Cl)nc3)CCCN12 | 45% |
| O=C(OC1CCC([N+](=O)[O-])=C2N(Cc3cnc(Cl)s3)CCN21)c1cc(F)c(F)c(F)c1F (stereo not shown) | 4% |
| CSC1CCC([N+](=O)[O-])=C2N(Cc3cnc(Cl)s3)CCN21 (stereo not shown) | 100% |

====

Test system: Aphis craccivoral
ASSAY_METHOD_TEXT: Insecticidal activity against Aphis craccivoral by immersing (dipping aphids on bean sprout)
Type: in vivo
SETUP_CONDITIONS: 500 ppm; immersing (dipped 5 seconds); counted after 24 hours; 23° C.

| COMPOUND | mortality (%) (500 ppm) Aphis |
| --- | --- |
| CCCCOC1CCC([N+](=O)[O-])=C2N(Cc3cnc(Cl)s3)CCN21 (racemic) [Compound 31] | 56 |
| O=[N+]([O-])C1=C2N(Cc3ccc(Cl)nc3)CCN2C(OS(=O)(=O)C(F)(F)F)CC1 (centres unmarked) [Compound 118] | 81 |
| CS(=O)(=O)OC1CCC([N+](=O)[O-])=C2N(Cc3ccc(Cl)nc3)CCN21 (centres unmarked) [Compound 117] | 19 |
| CCOCCOC1CCC([N+](=O)[O-])=C2N(Cc3ccc(Cl)nc3)CCCN21 (centres unmarked) [Compound 84] | 26 |
| CCCOC1CCC([N+](=O)[O-])=C2N(CC3CCOC3)CCN21 (centres unmarked) [Compound 50] | 100 |

====

The entries below come with measured mortality (%) (500 ppm) Aphis values attached.
Test system: Aphis craccivoral
ASSAY_METHOD_TEXT: Insecticidal activity against Aphis craccivoral by immersing (dipping aphids on bean sprout)
Type: in vivo
SETUP_CONDITIONS: 500 ppm; immersing (dipped 5 seconds); counted after 24 hours; 23° C.
EXPERIMENTAL_READOUT: mortality (%) (500 ppm) Aphis

| COMPOUND | EXPERIMENTAL_READOUT | OBS_VALUE |
| --- | --- | --- |
| CC(=O)OC1CCC([N+](=O)[O-])=C2N(Cc3ccc(Cl)nc3)CCN21 (stereo not drawn) [Compound 113] | mortality (%) (500 ppm) Aphis | 45 |
| O=C(OC1CCC([N+](=O)[O-])=C2N(Cc3ccc(Cl)nc3)CCN21)c1cc(F)c(F)c([N+](=O)[O-])c1F (stereo not drawn) [Compound 130] | mortality (%) (500 ppm) Aphis | 23 |
| CCCC(C)OC1CCC([N+](=O)[O-])=C2N(CC3CCOC3)CCN21 (stereo not drawn) [Compound 61] | mortality (%) (500 ppm) Aphis | 56 |

====

Test system: Nilaparvata lugens
ASSAY_METHOD_TEXT: Insecticidal activity against Nilaparvata lugens (planthopper) by spraying
Type: in vivo
SETUP_CONDITIONS: 500 ppm; spraying 2 ml; counted after 24 hours
The entries below come with measured mortality (%) (500 ppm) Nilaparvata lugens values attached.
EXPERIMENTAL_READOUT: mortality (%) (500 ppm) Nilaparvata lugens

| COMPOUND | OBS_VALUE |
| --- | --- |
| CCOCCOC1CCC([N+](=O)[O-])=C2N(CC3CCOC3)CCN21 (centres unmarked) [Compound 67] | 100 |
| CCC(C)SC1CCC([N+](=O)[O-])=C2N(Cc3ccc(Cl)nc3)CCN21 (centres unmarked) [Compound 144] | 56 |
| O=[N+]([O-])C1=C2N(Cc3cnc(Cl)s3)CCN2C(OS(=O)(=O)C(F)(F)F)CC1 (centres unmarked) [Compound 157] | 100 |
| O=C(OC1CCC([N+](=O)[O-])=C2N(Cc3ccc(Cl)nc3)CCN21)c1cc(F)c(Cl)cc1Cl (centres unmarked) [Compound 125] | 92 |
| CCC(C)OC1CCC([N+](=O)[O-])=C2N(CC3CCOC3)CCN21 (centres unmarked) [Compound 59] | 3 |

====

The entries below come with measured mortality (%) (500 ppm) Nilaparvata lugens values attached.
Tested on: Nilaparvata lugens
ASSAY_METHOD_TEXT: Insecticidal activity against Nilaparvata lugens (planthopper) by spraying
Assay type: in vivo
SETUP_CONDITIONS: 500 ppm; spraying 2 ml; counted after 24 hours
EXPERIMENTAL_READOUT: mortality (%) (500 ppm) Nilaparvata lugens

| COMPOUND | OBS_VALUE |
| --- | --- |
| CCCOC1CCC([N+](=O)[O-])=C2N(CC3CCOC3)CCN21 (centres unmarked) [Compound 50] | 100 |
| O=[N+]([O-])C1=C2N(Cc3cnc(Cl)s3)CCN2C(OC(C(F)(F)F)C(F)(F)F)CC1 (racemic) [Compound 30] | 98 |
| CC(=O)OC1CCC([N+](=O)[O-])=C2N(Cc3ccc(Cl)nc3)CCN21 (centres unmarked) [Compound 113] | 77 |
| CCCC(C)OC1CCC([N+](=O)[O-])=C2N(CC3CCOC3)CCN21 (centres unmarked) [Compound 61] | 89 |
| CC(C)CCOC1CCC([N+](=O)[O-])=C2N(CC3CCOC3)CCN21 (centres unmarked) [Compound 60] | 5 |
| O=[N+]([O-])C1=C2N(Cc3cnc(Cl)s3)CCN2C(OC2CCCCC2)CC1 (racemic) [Compound 40] | 67 |
| CCOC1CCC([N+](=O)[O-])=C2N(CC3CCOC3)CCN21 (centres unmarked) [Compound 47] | 100 |
| O=[N+]([O-])C1=C2N(Cc3cnc(Cl)s3)CCN2C(OCC(F)(F)F)CC1 (racemic) [Compound 27] | 100 |
| O=C(OC1CCC([N+](=O)[O-])=C2N(Cc3cnc(Cl)s3)CCN21)C(F)(F)F (centres unmarked) [Compound 155] | 90 |
| O=C(OC1CCC([N+](=O)[O-])=C2N(Cc3ccc(Cl)nc3)CCN21)c1ccc(C(F)(F)F)cc1 (centres unmarked) [Compound 126] | 100 |
| O=[N+]([O-])C1=C2N(Cc3ccc(Cl)nc3)CCN2C(OC2CCCCC2)CC1 (racemic) [Compound 18] | 67 |
| CC(C)CCSC1CCC([N+](=O)[O-])=C2N(Cc3ccc(Cl)nc3)CCN21 (centres unmarked) [Compound 145] | 78 |
| CCC(=O)OC1CCC([N+](=O)[O-])=C2N(Cc3ccc(Cl)nc3)CCN21 (centres unmarked) [Compound 114] | 88 |
| O=C(OC1CCC([N+](=O)[O-])=C2N(Cc3ccc(Cl)nc3)CCN21)c1ccc(Cl)cc1 (centres unmarked) [Compound 124] | 0 |
| O=C(OC1CCC([N+](=O)[O-])=C2N(Cc3ccc(Cl)nc3)CCN21)c1cc(F)c(F)c([N+](=O)[O-])c1F (centres unmarked) [Compound 130] | 67 |
| CC(C)(C)OC1CCC([N+](=O)[O-])=C2N(CC3CCOC3)CCCN21 (centres unmarked) [Compound 110] | 98 |
| O=[N+]([O-])C1=C2N(Cc3ccc(Cl)nc3)CCCN2C(OCCCl)CC1 (centres unmarked) [Compound 74] | 13 |
| CC(C)SC1CCC([N+](=O)[O-])=C2N(Cc3ccc(Cl)nc3)CCN21 (centres unmarked) [Compound 137] | 100 |
| O=[N+]([O-])C1=C2N(Cc3ccc(Cl)nc3)CCCN2C(O)CC1 (centres unmarked) [Compound 71] | 0 |
| O=[N+]([O-])C1=C2N(Cc3ccc(Cl)nc3)CCCN2C(OC(C(F)(F)F)C(F)(F)F)CC1 (centres unmarked) [Compound 78] | 51 |
| CC(C)(C)OC1CCC([N+](=O)[O-])=C2N(CC3CCOC3)CCN21 (centres unmarked) [Compound 56] | 100 |
| COC1CCC([N+](=O)[O-])=C2N(Cc3cnc(Cl)s3)CCCN21 (centres unmarked) [Compound 86] | 100 |
| C=CCOC1CCC([N+](=O)[O-])=C2N(CC3CCOC3)CCN21 (centres unmarked) [Compound 64] | 46 |
